Reported Fold Shift of EC50 values for a set of sequences
Biological target: PTHR1 (Rattus norvegicus, UniProt P25961)
Sequence (P25961 27-591): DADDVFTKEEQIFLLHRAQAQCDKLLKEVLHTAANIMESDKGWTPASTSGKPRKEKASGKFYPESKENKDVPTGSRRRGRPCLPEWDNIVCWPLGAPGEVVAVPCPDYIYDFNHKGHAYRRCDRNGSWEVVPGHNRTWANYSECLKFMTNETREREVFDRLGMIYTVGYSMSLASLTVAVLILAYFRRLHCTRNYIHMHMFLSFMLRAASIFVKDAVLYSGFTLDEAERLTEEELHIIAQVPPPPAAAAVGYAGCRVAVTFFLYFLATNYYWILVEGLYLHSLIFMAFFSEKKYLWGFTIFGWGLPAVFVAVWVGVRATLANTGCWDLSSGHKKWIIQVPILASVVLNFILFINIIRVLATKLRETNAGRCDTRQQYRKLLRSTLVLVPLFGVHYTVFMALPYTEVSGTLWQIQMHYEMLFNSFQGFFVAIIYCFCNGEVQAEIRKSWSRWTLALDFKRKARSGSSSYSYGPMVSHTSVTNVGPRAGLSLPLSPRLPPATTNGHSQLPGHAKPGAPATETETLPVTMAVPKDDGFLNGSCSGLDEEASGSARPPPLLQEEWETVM
Give the value as a plain number.

Consider the worked cases shown below.
[[record]]
biosequence = "RETNAGRSDTRQ [Compound 63]"
target_system = "PTHR1 (Rattus norvegicus, UniProt P25961)"
numeric_value = 1.1

[[record]]
biosequence = "RRLHSTRNYIHMHL [Compound 16]"
target_system = "PTHR1 (Rattus norvegicus, UniProt P25961)"
numeric_value = 2.45

[[record]]
biosequence = "YLHSLIFMAFFSEKKYLWGFT [Compound 35]"
target_system = "PTHR1 (Rattus norvegicus, UniProt P25961)"
numeric_value = 1.1


QUERY: Return reported Fold Shift of EC50; argument: TNAGRSDTRQQYRKLA [Compound 88]
RESULT: 2.8

* * *

Reported Fold Shift of EC50 values for a set of sequences
Target: PTHR1 (Rattus norvegicus, UniProt P25961)
Sequence (P25961 27-591): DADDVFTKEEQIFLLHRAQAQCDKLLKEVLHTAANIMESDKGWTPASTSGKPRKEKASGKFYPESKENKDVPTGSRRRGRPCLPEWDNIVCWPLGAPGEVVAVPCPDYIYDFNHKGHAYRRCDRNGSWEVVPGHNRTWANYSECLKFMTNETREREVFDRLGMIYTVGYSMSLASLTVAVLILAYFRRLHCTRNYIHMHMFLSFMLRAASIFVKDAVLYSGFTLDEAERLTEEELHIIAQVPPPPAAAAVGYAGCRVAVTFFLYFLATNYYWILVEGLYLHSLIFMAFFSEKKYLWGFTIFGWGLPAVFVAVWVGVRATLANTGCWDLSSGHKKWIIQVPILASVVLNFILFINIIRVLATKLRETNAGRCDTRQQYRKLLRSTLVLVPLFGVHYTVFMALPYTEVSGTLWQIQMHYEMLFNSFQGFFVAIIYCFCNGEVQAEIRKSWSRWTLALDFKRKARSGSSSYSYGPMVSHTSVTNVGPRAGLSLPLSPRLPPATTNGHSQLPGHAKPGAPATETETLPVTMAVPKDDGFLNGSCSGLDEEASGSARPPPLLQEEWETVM

Consider the worked cases shown below.
[[record]]
biosequence = "AYFRRLHSTRNYIH [Compound 7]"
result = 1.2

[[record]]
biosequence = "AGRSDTRQQYRKLLKS [Compound 65]"
result = 14.65

[[record]]
biosequence = "NIVRVLATKLRETNAGR [Compound 54]"
result = 0.7

[[record]]
biosequence = "KLRETNAGRSDTRQQY [Compound 53]"
result = 2.1

[[record]]
biosequence = "EIKKSWSRWTLALDFKRKAR [Compound 96]"
result = 1.1

[[record]]
biosequence = "RETNAGRSDTRQQYRKLL [Compound 59]"
result = 5.2


QUERY: Return reported Fold Shift of EC50; argument: SGRVLATKLR [Compound 71]
RESULT: 0.8

QUERY: Lookup KLRETNAGRSDTRQQRKLL [Compound 47]
RESULT: 2.7

QUERY: Lookup RETNAGRSDTRQQY [Compound 62]
RESULT: 1.1

QUERY: Lookup GSEKKYLWG [Compound 43]
RESULT: 1.4

QUERY: Lookup LAYFRRLHSTR [Compound 4]
RESULT: 0.9

QUERY: Lookup TNAGRADTRQQYRKLL [Compound 77]
RESULT: 6.9

QUERY: Lookup TNAGRSDTRQQYRKLLFA [Compound 86]
RESULT: 3.6

QUERY: Lookup LYLHSLIFMAFFSEKKYL [Compound 39]
RESULT: 1.3

QUERY: Lookup TNAGRSDTRQQYRKLLKSTL [Compound 52]
RESULT: 11.1

QUERY: Lookup NGEVQAEIKKSWSR [Compound 100]
RESULT: 1.8

QUERY: Lookup LAYFRRLHSTRNYI [Compound 9]
RESULT: 1.1

* * *

Target: PTHR1 (Rattus norvegicus)
Sequence (P25961 27-591): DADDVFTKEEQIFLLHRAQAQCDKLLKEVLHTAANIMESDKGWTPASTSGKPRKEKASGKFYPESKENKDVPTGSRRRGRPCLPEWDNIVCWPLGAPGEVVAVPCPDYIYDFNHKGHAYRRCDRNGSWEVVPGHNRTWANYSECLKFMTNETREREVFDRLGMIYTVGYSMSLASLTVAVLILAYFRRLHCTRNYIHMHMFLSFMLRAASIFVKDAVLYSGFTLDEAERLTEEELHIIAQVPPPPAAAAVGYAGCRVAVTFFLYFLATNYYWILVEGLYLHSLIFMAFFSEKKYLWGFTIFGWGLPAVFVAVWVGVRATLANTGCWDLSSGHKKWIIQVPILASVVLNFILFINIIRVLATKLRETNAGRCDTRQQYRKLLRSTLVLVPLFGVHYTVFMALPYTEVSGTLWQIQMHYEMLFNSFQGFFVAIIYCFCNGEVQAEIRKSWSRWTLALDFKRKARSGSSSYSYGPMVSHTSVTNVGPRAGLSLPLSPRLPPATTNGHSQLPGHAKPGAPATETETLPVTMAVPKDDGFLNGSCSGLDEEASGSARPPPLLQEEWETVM
Assay: cAMP screening assay using DiscoveRX XS+ kit (PTH1-34 dose-response in UMR-106 cells)
Details: compound 10 μM, PTH1-34 stimulated maximal response, 1−(Emax compound/Emax vehicle)
Reported Inhibition of Maximal Response values for a set of sequences

Consider the worked cases shown below.
[[record]]
biosequence = "VLATKLRETNAGRSDTRQQ [Compound 46]"
quantity = "Inhibition of Maximal Response"
result = "20.30%"

[[record]]
biosequence = "TNAGRSDTRQQYRKLLFS [Compound 85]"
quantity = "Inhibition of Maximal Response"
result = "19.50%"


Now consider the entry below.
QUERY: Lookup: Inhibition of Maximal Response / PTHR1 (Rattus norvegicus) / GSYFRRLHSTRNYIH [Compound 11]
RESULT: 19.80%

* * *

Target: PTHR1 (Rattus norvegicus, UniProt P25961)
Sequence (P25961 27-591): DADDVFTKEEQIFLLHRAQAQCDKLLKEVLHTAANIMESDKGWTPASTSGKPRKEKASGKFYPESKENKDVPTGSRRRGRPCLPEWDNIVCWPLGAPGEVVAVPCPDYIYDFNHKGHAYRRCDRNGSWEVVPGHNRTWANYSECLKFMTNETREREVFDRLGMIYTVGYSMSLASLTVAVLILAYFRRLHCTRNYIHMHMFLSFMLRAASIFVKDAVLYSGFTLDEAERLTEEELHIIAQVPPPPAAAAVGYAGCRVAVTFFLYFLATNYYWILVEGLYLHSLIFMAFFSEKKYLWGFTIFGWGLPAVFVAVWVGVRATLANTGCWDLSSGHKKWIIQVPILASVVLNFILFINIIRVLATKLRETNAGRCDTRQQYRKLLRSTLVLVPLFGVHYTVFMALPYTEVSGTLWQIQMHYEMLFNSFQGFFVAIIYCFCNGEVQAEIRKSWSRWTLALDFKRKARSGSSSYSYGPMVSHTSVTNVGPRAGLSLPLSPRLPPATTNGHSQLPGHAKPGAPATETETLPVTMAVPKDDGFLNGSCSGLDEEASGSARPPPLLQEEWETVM
Reported Fold Shift of EC50 values for a set of sequences
Give the value as a plain number.

Consider the worked cases shown below.
[[record]]
biosequence = "SWSRWTLALDFKRKAR [Compound 102]"
target_system = "PTHR1 (Rattus norvegicus, UniProt P25961)"
numeric_value = 1

[[record]]
biosequence = "VRVLATKLRETNAGRSDTR [Compound 45]"
target_system = "PTHR1 (Rattus norvegicus, UniProt P25961)"
numeric_value = 1.4

[[record]]
biosequence = "LAYFRRLHSTRNYIH [Compound 5]"
target_system = "PTHR1 (Rattus norvegicus, UniProt P25961)"
numeric_value = 1

[[record]]
biosequence = "AGRSDTRQQYRKLLFA [Compound 94]"
target_system = "PTHR1 (Rattus norvegicus, UniProt P25961)"
numeric_value = 18.7

[[record]]
biosequence = "LAYFRRLHSTRN [Compound 14]"
target_system = "PTHR1 (Rattus norvegicus, UniProt P25961)"
numeric_value = 0.7

[[record]]
biosequence = "RRLHSTRNYIHM [Compound 15]"
target_system = "PTHR1 (Rattus norvegicus, UniProt P25961)"
numeric_value = 1.7

[[record]]
biosequence = "TNAGRSDTRQQYRK [Compound 69]"
target_system = "PTHR1 (Rattus norvegicus, UniProt P25961)"
numeric_value = 5.2

[[record]]
biosequence = "RSDTRQQYRKLLKS [Compound 66]"
target_system = "PTHR1 (Rattus norvegicus, UniProt P25961)"
numeric_value = 16.4


QUERY: Return reported Fold Shift of EC50; argument: LHSLIFMAFFSEKKYLWGFT [Compound 37]
RESULT: 1.1

QUERY: Lookup SGRVLATKLRETNAGR [Compound 74]
RESULT: 1.9

QUERY: Lookup LAYFRRLHSTRNYIHMH [Compound 10]
RESULT: 1.1

QUERY: Lookup TNAGRSDTRQQYRKLLA [Compound 87]
RESULT: 4.1
